biological target: T1, Claudin 18.2 (CLDN18.2), expressed on CHOS-CLDN 18.2 / HEK293-CLDN 18.2 / HCC827-CLDN 18.2 cells (human, UniProt P56856-2 1-261); assay: FACS, CHOS-CLDN18.2 cells, 0 µg/ml (background)
T1 construct: whole, on cells; The species is not repeated for the CHOS-CLDN 18.2 cells; also called claudin-18A2
Observed property: FACS reading

Field request: FACS reading | item: QP201202 (antibody, human IgG1, V domains shown, Chimeric; also called 44C6) VH: EVQLQQSGPELVKPGASVKMSCKASGYTFTNYFVHWVKQKPGQGLEWIGYINPYNDDTKYNEKFKGKATLTSDKSSSTAYMDLSSLTSEDSAVYYCLSLRFFAYWGQGTLVTVSA VL: DIVMTQSPSSLTVTAGEKVTMSCKSSQSLLNSGNQKNYLTWYQQKPGQAPKLLIYWASTRESGVPDRFIGSGSGTDFTLTISHVQAEDLAVYFCQNDYSYPLTFGAGTNLELK
732

Every entry's value here was drawn from patent US20230183352A1.
